# TGI listing for each entry below
- System: OVCAR-4 ovarian
- measurement.notes: NCI tumour cell line growth inhibition, 48 h

O=C(Oc1c(Cl)c(Cl)c(Cl)c(Cl)c1Cl)C1CCCN1C(=O)OCc1ccccc1 (stereo unspecified) : 10.6 µM

Ask | GET /values?readout=TGI&item= `COc1ccc(/C=C2/C(=O)N(/C=C3\C(=O)Oc4ccccc4C3=O)C(=NC(C)=O)N2C)cc1OC`
Reply | > 100 µM

Ask | For O=C(Cc1ccccc1)N/N=C(/c1nc2ccc([N+](=O)[O-])cc2[nH]c1=O)C(O)c1ccco1 (stereo unspecified) , what is its reported TGI?
Reply | > 100 µM
